meta.source: ChEMBL document CHEMBL4834397

Assay: Tmax in Beagle dog at 0.3 mg/kg, po or 0.1 mg/kg, iv measured upto 120 hrs by LCMS/MS analysis
Type: ADME, organism-based, Canis lupus familiaris
Conditions: in vivo
measurement_label: Tmax (h)

                              record_smiles  measurement_label  result
0  N[C@@H](CC(=O)O)Cn1nnc(-c2ccc(Oc3ncc(Cl)cc3F)cc2)n1               Tmax       5

* * *

Assay: Volume of distribution at steady state in Wistar rat at 3 mg/kg, po or 1 mg/kg, iv after 0.25 to 24 hrs by LCMS/MS analysis
Type: ADME, organism-based
Conditions: in vivo, time 0.25-24 hrs, read-out: Vdss
measurement_label: Vd

In [3]: df
Out[3]:
                              record_smiles  measurement_label     result
0  N[C@@H](CC(=O)O)Cn1nnc(-c2ccc(Oc3ncc(Cl)cc3F)cc2)n1                 Vd  3.29 L/kg
